Provide the reported inhibition of growth at 10 µM of each item.
- System: OVCAR-8
- TEST METHOD NOTES: Growth inhibition of human OVCAR8 cells at 10^-5 M incubated for 48 hrs by sulforhodamine B assay
- Assay type: functional
- PARTICULARS: OVCAR-8, 48 h, read-out: GI
Please state the figure in %; there is no need to write the unit.

Given the entry O=[N+]([O-])c1cccc(C2c3sc4ccc(Cl)cc4c3N=C3NN=CN32)c1 (stereo not drawn) , report its measured inhibition of growth at 10 µM.
1.42

And what about the molecule N=C1Nc2c(sc3ccc(Cl)cc23)C(c2ccc3ccccc3c2)N1 (stereo not drawn) ?
-3.15

And what about the molecule N=C1Nc2c(sc3ccc(Cl)cc23)C(c2cccc([N+](=O)[O-])c2)N1 (stereo not drawn) ?
9.4

And what about the molecule N=C1Nc2c(sc3ccc(Cl)cc23)C(c2cccc(Br)c2)N1 (stereo not drawn) ?
-2.43

And what about the molecule S=C1Nc2c(sc3ccc(Cl)cc23)C(c2ccc3ccccc3c2)N1 (stereo not drawn) ?
8.23

And what about the molecule Cc1cc(C)n(C2=Nc3c(sc4ccc(Cl)cc34)C(c3cccc([N+](=O)[O-])c3)N2)n1 (stereo not drawn) ?
0.5

And what about the molecule O=C1/C(=C\c2cccc(Br)c2)Sc2ccc(Cl)cc21 ?
-3.52

And what about the molecule O=[N+]([O-])c1cccc(C2NC(=S)Nc3c2sc2ccc(Cl)cc32)c1 (stereo not drawn) ?
4.42

And what about the molecule O=C1Nc2c(sc3ccc(Cl)cc23)C(c2cccc([N+](=O)[O-])c2)N1 (stereo not drawn) ?
4.06

And what about the molecule O=C1CSC2=Nc3c(sc4ccc(Cl)cc34)C(c3ccc4ccccc4c3)N12 (stereo not drawn) ?
3.28

And what about the molecule NNC1=Nc2c(sc3ccc(Cl)cc23)C(c2cccc([N+](=O)[O-])c2)N1 (stereo not drawn) ?
-1.52

And what about the molecule Oc1ccccc1C1NC(=S)Nc2c1sc1ccc(Cl)cc21 (stereo not drawn) ?
5.15

And what about the molecule O=C1Nc2c(sc3ccc(Cl)cc23)C(c2ccccc2O)N1 (stereo not drawn) ?
3.5

And what about the molecule S=C1Nc2c(sc3ccc(Cl)cc23)C(c2cccc(Br)c2)N1 (stereo not drawn) ?
3.39

And what about the molecule O=C1Nc2c(sc3ccc(Cl)cc23)C(c2cccc(Br)c2)N1 (stereo not drawn) ?
-2.63

And what about the molecule CCOC(=O)CSC1=Nc2c(sc3ccc(Cl)cc23)C(c2cccc([N+](=O)[O-])c2)N1 (stereo not drawn) ?
-1.34

And what about the molecule N#Cc1cnn(C2=Nc3c(sc4ccc(Cl)cc34)C(c3cccc([N+](=O)[O-])c3)N2)c1N (stereo not drawn) ?
-2.67

And what about the molecule O=[N+]([O-])c1cccc(C2NC(N3CCOCC3)=Nc3c2sc2ccc(Cl)cc32)c1 (stereo not drawn) ?
-3
